pEC50 for assorted compounds
Test system: beta amyloid 40
Test: Aβ40/42 ELISA Assay: Aβ40
Format: cell-based
Conditions: Cricetulus griseus; CHO cells carrying the APP-REP-NL plasmid, 22 hours, sandwich ELISA of medium
In plain terms, pEC50 is the concentration in mol/L turned into minus its base-10 logarithm.

Example entries begin here.
{"compound": "O=S(=O)(NC(CO)C(C(F)(F)F)C(F)(F)F)c1cccc(C(F)(F)F)c1 (centres unmarked)", "test-system": "beta amyloid 40", "observed": 4.55}
{"compound": "O=S(=O)(N[C@H](CO)C(C(F)(F)F)C(F)(F)F)c1ccc(Cl)c(Cl)c1", "test-system": "beta amyloid 40", "observed": 5.25}
{"compound": "O=[N+]([O-])c1ccc(S(=O)(=O)NC(CO)C(C(F)(F)F)C(F)(F)F)cc1 (centres unmarked)", "test-system": "beta amyloid 40", "observed": 4.56}

Continue with the next compound.
Record summary for C[C@@H]([C@@H](CO)NS(=O)(=O)c1ccc(F)cc1)C(F)(F)F : reported pEC50 = 6.19

###

The entries below come with measured EC50 values attached.
Tested on: beta amyloid 40
Experiment: Aβ40/42 ELISA Assay: Aβ40
Assay type: cell-based
Settings: Cricetulus griseus; CHO cells carrying the APP-REP-NL plasmid, 22 hours, sandwich ELISA of medium
Please give a number only; it is taken to be in µM.

Field: example entries. Status: answers known.
{"compound": "N#Cc1ccc(S(=O)(=O)NC(CO)C(C(F)(F)F)C(F)(F)F)cc1 (stereo not shown)", "EC50, µM": 90.7}
{"compound": "O=S(=O)(NC(CO)C(C(F)(F)F)C(F)(F)F)c1ccc(Br)cc1 (stereo not shown)", "EC50, µM": 0.886}
{"compound": "O=S(=O)(NC(CO)C(C(F)(F)F)C(F)(F)F)c1ccc(Cl)c(C(F)(F)F)c1 (stereo not shown)", "EC50, µM": 37.7}

Lab note: next compound to report on.
// EC50 value for O=S(=O)(NC(CO)C(C(F)(F)F)C(F)(F)F)c1cc(F)c(F)c(F)c1 (stereo not shown) : 6.63
